- SUBJECT_OF_TEST: T1, human EpCAM on COLO-205 cells (human, UniProt P16422 24-314)
- T1 construct: whole, on cells; Endogenous EpCAM of the EpCAM-positive cell line COLO-205; also called epithelial cell adhesion molecule; Colo205 (EpCAM+)
- T1 sequence (looked up): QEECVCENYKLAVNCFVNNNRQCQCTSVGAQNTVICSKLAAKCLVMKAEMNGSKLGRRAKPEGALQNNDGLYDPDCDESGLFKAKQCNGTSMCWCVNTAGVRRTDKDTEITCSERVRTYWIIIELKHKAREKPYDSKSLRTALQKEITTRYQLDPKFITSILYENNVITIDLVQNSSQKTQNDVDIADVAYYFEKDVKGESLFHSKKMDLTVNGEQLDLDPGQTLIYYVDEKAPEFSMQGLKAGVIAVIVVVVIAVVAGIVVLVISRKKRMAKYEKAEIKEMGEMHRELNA
- EXPERIMENT_DESCRIPTION: flow cytometry, ratio of the signal on COLO-205 (EpCAM+) to that on A375 (EpCAM-) cells
ENDPOINT_LABEL: COLO-205/A375

{"columns": ["BINDER", "RECORDED_RESULT"],
 "data": [
  ["EpCAM binding FN3 domain clone 639 (designed binder, not shown: No entry is named H9) MLPAPKNLVVSRVTEDSARLSWTAPDAAFDSFSISYRERSAWGEAIALVVPGSERSYDLTGLKPGIEYIVGIIGVKGGLRSNPLRADFTT", 11],
  ["EpCAM binding FN3 domain clone 680 (designed binder, not shown: No entry is named H9) MLPAPKNLVVSRVTEDSARLSWTAPYAAFDSFAISYRERSREGEVIALTVPGSERSYDLTGLKPGTEYIVGILGVKGGRRSKPLRAQFTT", 11.9],
  ["EpCAM binding FN3 domain clone 1874 (designed binder, not shown: No entry is named H9) MLPAPKNLVVSRVTEDSARLSWTAPDAAFDSFKIGYWEWRKYGEAIELNVPGSERSYDLTGLKPGTEYRVLIYGVKGGAGSHPLRALFTT", 12.1]
]}
